Test system: human NOD2 signaling
test: Inhibition of human NOD2 signaling in HEK-Blue-hNOD2 cells (L18-MDP stimulated, SEAP reporter)
Format: cell-based
condition.info: Homo sapiens, HEK-Blue hNOD2, HEK-Blue-hNOD2 cells, NOD2 ligand stimulation, SEAP reporter; read-out: hNOD2 IC50
measurement.label: IC50 (nM)
Report only the number, with the unit nM understood.

Sample records with IC50:
molecule	readout.unit	IC50
CCS(=N)(=O)c1ccc2nccc(Oc3ccc(CC(=O)Nc4cnn(C(C)(C)C)c4)c(F)c3C)c2c1 (single isomer, unassigned)	nM	0.8
Cc1cc(CC(=O)Nc2cnn(C(C)(C)C)c2)ccc1Oc1ccnc2ccc(P(C)(C)=O)cc12	nM	38.1
Cc1cc(CC(=O)Nc2cnn(C(C)(C)C)c2)cc(Cl)c1Oc1ccnc2ccc(S(C)(=O)=O)cc12	nM	7.8
CNC(=O)C(F)(F)c1ccc2nccc(Oc3cc(F)c(CC(=O)Nc4cnn(C(C)(C)C)c4)cc3C)c2c1	nM	1
CNC(=O)C(C)(C)c1ccc2nccc(Oc3cc(F)c(CC(=O)Nc4cnn(C(C)(C)C)c4)cc3C)c2c1	nM	10.4
Cc1nc(CC(=O)Nc2cnn(C(C)(C)C)c2)ccc1Oc1ccnc2cc(F)c(C(N)=O)cc12	nM	3.6
CNC(=O)c1ccc2nccc(Oc3c(C)cc(CC(=O)Nc4cnn(C(C)(C)C)c4)cc3Cl)c2c1	nM	1.4
Cc1cc(CC(=O)Nc2cnn(C(C)(C)C)c2)ccc1Oc1ccnc2ccc(C3(C(N)=O)CCC3)cc12	nM	12.4

Task: GET /values?readout=IC50&item= `CNCc1nnc(-c2ccc3nccc(Oc4cc(F)c(CC(=O)Nc5cnn(C(C)(C)C)c5)cc4C)c3c2)o1`
Result: 4.2

Task: GET /values?readout=IC50&item= `Cc1cc(CC(=O)Nc2cnn(C(C)(C)C)c2)c(F)cc1Oc1ccnc2ccc(-c3ccnnc3C)cc12`
Result: 5.5

Task: GET /values?readout=IC50&item= `Cc1cc(CC(=O)Nc2cnn(C(C)(C)C)c2)c(F)cc1Oc1ccnc2ccc(-c3nnc(CO)cc3C)cc12`
Result: 2.2

Task: GET /values?readout=IC50&item= `CNC(=O)c1cc2c(Oc3ccc(CC(=O)Nc4cnn(C(C)(C)C)c4)nc3C)ccnc2cc1F`
Result: 4.6

Task: GET /values?readout=IC50&item= `Cc1cc(CC(=O)Nc2cnn(C(C)(C)C)c2)ccc1Oc1ccnc2ccc(S(C)(=O)=O)cc12`
Result: 0.7

Task: GET /values?readout=IC50&item= `COc1cc2nccc(Oc3ccc(CC(=O)Nc4cnn(C(C)(C)C)c4)cc3C(F)F)c2cc1C(N)=O`
Result: 0.7

Task: GET /values?readout=IC50&item= `Cc1cc(CC(=O)Nc2cnn(C(C)(C)C)c2)cc(Cl)c1Oc1ccnc2ccc(C(N)=O)cc12`
Result: 1
